- System: MDA-N
- test-name: NCI tumour cell line growth inhibition, 48 h
The source made the active and inactive calls. No stated cut-off is given here; in the data, active = GI50 up to about 1.1 µM and inactive = higher.
Parameter GI50: see the listing below.
endpoint-name: GI50

compound=O=C1CCc2cc3c(cc21)CC1(Cc2ccccc2C1)C3 experimental_result="2.16 µM (inactive)"
compound="CCCCCCCCCN1CCC(=O)C(C(=O)OC)C1 (stereo unspecified)" experimental_result="16 µM (inactive)"
compound=COc1ccc(-c2oc3cc(O)cc(O)c3c(=O)c2OC)cc1 experimental_result="25.4 µM (inactive)"
compound="CCSC1SC(c2ccccc2)(c2ccccc2)c2ccccc21 (stereo unspecified)" experimental_result="35.9 µM (inactive)"
compound="OCC(O)C(O)C(O)C1SC(c2ccccc2)=NN1c1ccccc1 (stereo unspecified)" experimental_result="> 82.4 µM (inactive)"
compound=O=c1[nH][nH]c(=O)n1CCCCCCn1c(=O)[nH][nH]c1=O experimental_result="> 100 µM (inactive)"

====

- Tested on: HCT-116
- test-name: NCI tumour cell line growth inhibition, 48 h
Calls of active or inactive are those of the source. No stated cut-off is given here; in the data, active = GI50 up to about 1.1 µM and inactive = higher.
Outcome codes: active, inactive

compound=COc1ccc(/C=N/n2c(Cc3ccc(Cl)cc3)n[nH]c2=O)cc1 assigned_category=inactive
compound=O=c1c2ccccc2oc2ccccc12.Oc1cccc2cccnc12 assigned_category=inactive
compound="S=C1NC(c2ccccc2)NC(c2ccccc2)S1 (stereo not given)" assigned_category=inactive
compound=CC(C)(C)c1cc(-c2cc(C(C)(C)C)[nH]n2)[nH]n1 assigned_category=inactive
compound=C(=N\c1ccc(-c2nc3ccccc3[nH]2)cc1)/c1ccco1 assigned_category=inactive
compound="CNC(=O)OC(C)CN1c2ccccc2Sc2ccccc21 (stereo not given)" assigned_category=inactive
compound="N#CCC1COc2ccccc2O1 (stereo not given)" assigned_category=inactive
compound=CC1=C(C)C(=O)O[C@@H]([C@](C)(O)[C@]2(O)CC[C@@]3(O)[C@@H]4C[C@H](O)[C@]5(O)[C@@H](O)C=CC(=O)[C@]5(C)[C@H]4CC[C@]23C)C1 assigned_category=inactive
compound=Cn1c(-c2ccccc2)cc(-c2cccs2)c1-c1cccs1 assigned_category=inactive
compound=c1ccc(P(CCP(c2ccccn2)c2ccccn2)c2ccccc2)cc1 assigned_category=active

====

- Test system: NCI-H522
- test-name: NCI tumour cell line growth inhibition, 48 h
Active and inactive are the calls of the source. Rule as the data show it: active = GI50 up to about 1.1 µM and inactive = higher.
Outcome codes: class 1 for active, class 0 for inactive

molecule=COc1cccc2c1Cc1cc(-c3ccccc3)[n+](C)n1-2 assigned_category="class 0"
molecule="CCC(C(=O)O)c1ccc(OCc2ccccc2)cc1 (centres undefined)" assigned_category="class 0"
molecule=CCOC(=O)c1cc2c([nH]1)C(=O)CC1=C2CCN1Cc1ccccc1 assigned_category="class 0"
molecule=COc1ccc(C[C@@H]2OC3(C=CC(=O)C=C3)O[C@H]2Cc2ccc(OC)cc2)cc1 assigned_category="class 1"
molecule=c1ccc(Sc2nc(Sc3ccccc3)nc(Sc3ccccc3)n2)cc1 assigned_category="class 0"
molecule="N#Cc1c(-c2ccco2)c2c(n(C3OC(CO)C(O)C(O)C3O)c1=S)CCCC2 (centres undefined)" assigned_category="class 0"
molecule=NCCN1CC2CCC(CC2)C1 assigned_category="class 0"
molecule="C=C1CC(COc2cc(=O)oc3ccccc23)(c2ccccc2)OC1=O (centres undefined)" assigned_category="class 0"
molecule=COc1cc2c3cc1Oc1c(O)c(OC)cc4c1[C@H](Cc1ccc(cc1)Oc1cc(ccc1O)C[C@H]3N(C)CC2)N(C)CC4 assigned_category="class 0"
molecule=Nc1ccc2c(c1)NCCN2 assigned_category="class 0"
molecule="COc1nc2ccc(Cl)c(C(O)c3ccccc3)c2nc1OC (centres undefined)" assigned_category="class 0"
molecule="Cc1cc2ncn(-c3nc4ccccc4nc3C(C#N)S(C)(=O)=O)c2cc1C (centres undefined)" assigned_category="class 0"
molecule=COc1ccc(-c2nc3c(C(=O)NCCN(C)C)cccc3c3ccccc23)cc1 assigned_category="class 0"
molecule=C1=N\c2ccc(cc2)-c2ccc(cc2)/N=C\c2ccccc2OCc2cccc(n2)COc2ccccc2/1 assigned_category="class 0"
molecule=CN(C)/N=N/c1[nH]cnc1C(N)=O assigned_category="class 0"
molecule=N#C[BH2-][n+]1ccc(C(=O)NNCc2ccccc2)cc1 assigned_category="class 0"
molecule=N#Cc1ccc2[nH]c3c(c2c1)CC(=O)Nc1ccccc1-3 assigned_category="class 0"
molecule=CC(=O)O[C@H]1C(=O)[C@@]2(C)[C@H]([C@H](OC(=O)C3CCCCC3)[C@]3(O)C[C@H](OC(=O)[C@H](O)[C@@H](NC(=O)OC(C)(C)C)c4ccccc4)C(C)=C1C3(C)C)[C@]1(OC(C)=O)CO[C@@H]1C[C@@H]2O assigned_category="class 1"
molecule=CCOC(CN(C)C(=O)OCC(Cl)(Cl)Cl)OCC assigned_category="class 0"

====

- Test system: SF-539
- test-name: NCI tumour cell line growth inhibition, 48 h
Calls of active or inactive are those of the source. Cut-off read from the data, not from the text of the source: active = GI50 up to about 1.1 µM and inactive = higher.
endpoint-name: GI50

molecule=COc1ccc(/C=N/c2ccc(-c3nc4ccccc4[nH]3)cc2)cc1OC endpoint_name=GI50 experimental_result="> 100 µM (inactive)"
molecule=Sc1nn2c(COc3ccc(Cl)cc3)nnc2s1 endpoint_name=GI50 experimental_result="> 100 µM (inactive)"
molecule=CN(C)c1snc2c1c(=O)n(C)c(=O)n2C endpoint_name=GI50 experimental_result="> 100 µM (inactive)"
molecule=O=c1c2ccccc2oc2ccccc12.Oc1cccc2cccnc12 endpoint_name=GI50 experimental_result="2.36 µM (inactive)"
molecule=CCOC(=O)c1ccc(/N=C/C=C(\Nc2ccc(C(=O)OCC)cc2)c2ccc3ccccc3c2)cc1 endpoint_name=GI50 experimental_result="20.2 µM (inactive)"
molecule="O=C1CC(CC(O)C(O)CO)CC(=O)N1 (stereo unspecified)" endpoint_name=GI50 experimental_result="> 100 µM (inactive)"
molecule=CCOC(=O)c1cc2c([nH]1)C(=O)CC1=C2CCN1Cc1ccccc1 endpoint_name=GI50 experimental_result="22.1 µM (inactive)"
molecule="O=[N+]([O-])c1ccc2c3ccccc3[s+]([O-])c2c1 (stereo unspecified)" endpoint_name=GI50 experimental_result="> 100 µM (inactive)"
molecule="O=C(O)CCC(NC(=O)c1ccc(Nc2nc3ccc(C(F)(F)F)cc3nc2-c2ccccc2)cc1)C(=O)O (stereo unspecified)" endpoint_name=GI50 experimental_result="> 100 µM (inactive)"
molecule=Nc1nc(Cl)cc(NCC2(CO)CC(=O)C2)n1 endpoint_name=GI50 experimental_result="> 100 µM (inactive)"
molecule="O=C1NC(O)c2ccccc2O1 (stereo unspecified)" endpoint_name=GI50 experimental_result="> 100 µM (inactive)"

====

- System: CCRF-CEM
- test-name: NCI tumour cell line growth inhibition, 48 h
Active and inactive are the calls of the source. Rule as the data show it: active = GI50 up to about 1.1 µM and inactive = higher.
Outcome codes: true = active, false = inactive

compound=COc1cc(/C=N/N=C(\N)NO)c([N+](=O)[O-])cc1OC target_or_system=CCRF-CEM assigned_category=false
compound=Cc1nc2c(nc1C)C(=O)c1ccccc1C2=O target_or_system=CCRF-CEM assigned_category=false
compound="O=C1CC(CC(O)C(O)CO)CC(=O)N1 (stereo not given)" target_or_system=CCRF-CEM assigned_category=false
compound="CN(C)/N=N/c1[nH]cnc1C(N)=O [DACARBAZINE]" target_or_system=CCRF-CEM assigned_category=false
compound="Cc1ccccc1NC(=O)C1C(=O)N(c2ccccc2C)C(=O)/C1=N\\NC(N)=O (stereo not given)" target_or_system=CCRF-CEM assigned_category=false
compound="CN(C)CCOc1ccc2[nH]c(C(=O)N3CC(CCl)c4ccc(N)cc43)cc2c1 (stereo not given)" target_or_system=CCRF-CEM assigned_category=true
compound=O=c1[nH][nH]c(=O)n1CCCCCCn1c(=O)[nH][nH]c1=O target_or_system=CCRF-CEM assigned_category=false
compound="N=c1[nH]cnc2c1nnn2C1C=CC(COS(N)(=O)=O)C1 (stereo not given)" target_or_system=CCRF-CEM assigned_category=false
compound=C[C@H](CCC(=O)O)[C@H]1CC[C@H]2[C@@H]3C(=O)C[C@@H]4C[C@H](O)CC[C@]4(C)[C@H]3C[C@H](O)[C@]12C target_or_system=CCRF-CEM assigned_category=false
compound="CC(=O)c1cccc(NC(=O)C(=O)C(C2OC(=O)c3ccccc32)[N+](=O)[O-])c1 (stereo not given)" target_or_system=CCRF-CEM assigned_category=false

====

Parameter GI50: see the listing below.
- Tested on: HL-60
- test-name: NCI tumour cell line growth inhibition, 48 h
Activity calls are given as the source filed them. Cut-off read from the data, not from the text of the source: active = GI50 up to about 1.1 µM and inactive = higher.
endpoint-name: GI50

compound=Cc1ccc(C(=O)Cc2nc3ncccc3[nH]c2=O)cc1 experimental_result="> 100 µM (inactive)"
compound=O=C(Nc1nc2ncn(CCNCCn3cnc4nc(NC(=O)c5ccccc5)[nH]c(=O)c43)c2c(=O)[nH]1)c1ccccc1 experimental_result="> 100 µM (inactive)"
compound="CC1CC[C@@]2(OC1)OC1CC3C4CCC5C[C@@H](OC6OC(CO)C(OC7OC(CO)C(O)C(OC8OC(CO)C(O)C(OC9OC(CO)C(O)C(O)C9O)C8O)C7OC7OC(CO)C(O)C(O)C7O)C(O)C6O)[C@H](O)C[C@]5(C)C4CC[C@]3(C)C1[C@@H]2C (stereo partly drawn)" experimental_result="> 80.5 µM (inactive)"
